procedure-text: Gelation test in solvents at room temperature
Assay type: physicochemical
condition-context: DMSO:H2O 1:2; Table 3
quantity-kind: preliminary MGC (stable gel) (mg/mL)

# compound, units-text, preliminary MGC (stable gel)
records = [
    ("COC1OC(CO)C(O)C(O)C1N(CC(=O)NC1CCCCC1)C(=O)c1ccc(Br)cc1 (stereo not drawn)", "mg/mL", 20.0),
]

a: CC1(C)OCC(CN(CC(=O)NC2CCCCC2)C(=O)c2ccc(Br)cc2)O1 (stereo not drawn)
b: COC1OC2COC(c3ccccc3)OC2C(O)C1N(CC(=O)NC1CCCCC1)C(C)=O (stereo not drawn)
// query Hi, I'm comparing two records. Which one has the lower preliminary MGC (stable gel), a or b ? Field: selected label. Fill in the label of the entry you choose.
// result b

A: COc1ccc(CN(CC(=O)NCS(=O)(=O)c2ccc(C)cc2)C(=O)c2ccc(Br)cc2)cc1
B: CCOC(=O)CNC(=O)CN(Cc1ccc(OC)cc1)C(=O)CCC(=O)NC1C(OC)OC2COC(c3ccccc3)OC2C1O (stereo not drawn)
// query Hi, I'm comparing two records. Which one has the lower preliminary MGC (stable gel), A or B ? Field: selected label. Fill in the label of the entry you choose.
// result B
(B: 10.0 mg/mL, A: 20.0 mg/mL)
